system: human hepatocellular carcinoma HepG2; assay type: cell-based; conditions: 48 h
measure name: IC50 Value HepG2 (µg/mL)

(P) CC(C)C[C@@H]1NC(=O)[C@@H](Cc2ccccc2)NC(=O)[C@H](CC(C)C)N(C)C(=O)[C@H](CC(C)C)NC(=O)[C@@H](CC(C)C)NC1=O [Compound 23, cyclo(D-Phe-Leu-D-Leu-Leu-N-Me-Leu)]
(Q) CC(C)C[C@@H]1NC(=O)[C@H](CC(C)C)N(C)C(=O)[C@H](CC(C)C)NC(=O)[C@@H](CC(C)C)N(C)C(=O)[C@@H](Cc2ccccc2)NC1=O [Compound 19, cyclo(D-Phe-D-N-Me-Leu-Leu-N-Me-Leu-Leu)]
## Task Param pair: P , Q . Output: the one whose IC50 Value HepG2 is numerically greater. # respond with the chosen item's label
## Result P
(P: 26.62 µg/mL, Q: 4.25 µg/mL)

* * *

test system: drug-resistant lung cancer cell line A549/DPP; assay type: cell-based, human; details: 48 h
measure name: IC50 Value A549-DPP (µg/mL)

Please review the following examples before continuing.
CC(C)C[C@@H]1NC(=O)[C@@H](Cc2ccccc2)NC(=O)[C@@H](CC(C)C)NC(=O)[C@@H](CC(C)C)NC(=O)[C@H](CC(C)C)N(C)C1=O [Compound 2, cyclo(D-Phe-Leu-N-Me-Leu-D-Leu-D-Leu)]    15.01
CC(C)C[C@@H]1NC(=O)[C@H](CC(C)C)N(C)C(=O)[C@H](CC(C)C)NC(=O)[C@@H](CC(C)C)N(C)C(=O)[C@@H](Cc2ccccc2)NC1=O [Compound 19, cyclo(D-Phe-D-N-Me-Leu-Leu-N-Me-Leu-Leu)]    17.73
CC(C)C[C@@H]1NC(=O)[C@@H](Cc2ccccc2)NC(=O)[C@H](CC(C)C)N(C)C(=O)[C@H](CC(C)C)NC(=O)[C@@H](CC(C)C)NC1=O [Compound 23, cyclo(D-Phe-Leu-D-Leu-Leu-N-Me-Leu)]    9.13
CC(C)C[C@H]1NC(=O)[C@@H](CC(C)C)NC(=O)[C@H](CC(C)C)N(C)C(=O)[C@@H](CC(C)C)NC(=O)[C@H](Cc2ccccc2)NC1=O [Compound 1, cyclo(Phe-D-Leu-N-Me-Leu-D-Leu-D-Leu)]    27.2
CC(C)C[C@H]1NC(=O)[C@H](Cc2ccccc2)NC(=O)[C@H](CC(C)C)N(C)C(=O)[C@@H](CC(C)C)NC(=O)[C@@H](CC(C)C)NC1=O [Compound 21, cyclo(Phe-D-Leu-D-Leu-D-Leu-N-Me-Leu)]    18.6
CC(C)C[C@@H]1NC(=O)[C@H](Cc2ccccc2)NC(=O)[C@H](CC(C)C)N(C)C(=O)[C@@H](CC(C)C)NC(=O)[C@H](CC(C)C)NC1=O [Compound 20, cyclo(Phe-Leu-Leu-D-Leu-N-Me-Leu)]    16.15
CC(C)C[C@@H]1NC(=O)[C@@H](CC(C)C)N(C)C(=O)[C@H](CC(C)C)NC(=O)[C@@H](Cc2ccccc2)NC(=O)[C@@H](CC(C)C)NC1=O [Compound 4, cyclo(D-Phe-Leu-D-N-Me-Leu-Leu-D-Leu)]    19.71
CC(C)C[C@@H]1NC(=O)[C@H](Cc2ccccc2)NC(=O)[C@@H](CC(C)C)NC(=O)[C@@H](CC(C)C)NC(=O)[C@@H](CC(C)C)N(C)C1=O [Compound 3, cyclo(Phe-Leu-D-N-Me-Leu-D-Leu-D-Leu)]    11.41

(I) CC(C)C[C@@H]1NC(=O)[C@H](CC(C)C)NC(=O)[C@@H](Cc2ccccc2)NC(=O)[C@H](CC(C)C)N(C)C(=O)[C@@H](CC(C)C)NC1=O [Compound 22, cyclo(D-Phe-Leu-Leu-D-Leu-N-Me-Leu)]
(II) CC(C)C[C@H]1NC(=O)[C@@H](Cc2ccccc2)NC(=O)[C@H](CC(C)C)N(C)C(=O)[C@@H](CC(C)C)NC(=O)[C@H](CC(C)C)N(C)C1=O [Compound 5]
## Task Param pair: I , II . Output: the one whose IC50 Value A549-DPP is numerically greater. # respond with the chosen item's label
## Result II

* * *

test system: human hepatocellular carcinoma HepG2; format: cell-based; conditions: 48 h
measure name: IC50 Value HepG2 (µg/mL)

CC(C)C[C@@H]1NC(=O)[C@@H](Cc2ccccc2)NC(=O)[C@@H](CC(C)C)NC(=O)[C@@H](CC(C)C)NC(=O)[C@H](CC(C)C)N(C)C1=O [Compound 2, cyclo(D-Phe-Leu-N-Me-Leu-D-Leu-D-Leu)]    7.76
CC(C)C[C@H]1NC(=O)[C@H](Cc2ccccc2)NC(=O)[C@H](CC(C)C)N(C)C(=O)[C@@H](CC(C)C)NC(=O)[C@@H](CC(C)C)NC1=O [Compound 21, cyclo(Phe-D-Leu-D-Leu-D-Leu-N-Me-Leu)]    15.3

(1) CC(C)C[C@H]1NC(=O)[C@@H](CC(C)C)NC(=O)[C@H](CC(C)C)N(C)C(=O)[C@@H](CC(C)C)NC(=O)[C@H](Cc2ccccc2)NC1=O [Compound 1, cyclo(Phe-D-Leu-N-Me-Leu-D-Leu-D-Leu)]
(2) CC(C)C[C@@H]1NC(=O)[C@H](Cc2ccccc2)NC(=O)[C@@H](CC(C)C)N(C)C(=O)[C@H](CC(C)C)NC(=O)[C@H](CC(C)C)NC1=O [Compound 24, cyclo(Phe-Leu-Leu-Leu-D-N-Me-Leu)]
## Task Among 1 and 2 , whose measured IC50 Value HepG2 is the smaller figure? # respond with the chosen item's label
## Result 2
(2: 7.92 µg/mL, 1: 12.15 µg/mL)

* * *

test system: human hepatocellular carcinoma HepG2; format: cell-based; conditions: 48 h
measure name: IC50 Value HepG2 (µg/mL)

CC(C)C[C@@H]1NC(=O)[C@@H](CC(C)C)N(C)C(=O)[C@H](CC(C)C)NC(=O)[C@@H](Cc2ccccc2)NC(=O)[C@@H](CC(C)C)NC1=O [Compound 4, cyclo(D-Phe-Leu-D-N-Me-Leu-Leu-D-Leu)]    16.58

(a) CC(C)C[C@@H]1NC(=O)[C@@H](Cc2ccccc2)NC(=O)[C@@H](CC(C)C)N(C)C(=O)[C@@H](CC(C)C)NC(=O)[C@@H](CC(C)C)NC1=O [Compound 25, cyclo(D-Phe-Leu-D-Leu-D-Leu-D-N-Me-Leu)]
(b) CC(C)C[C@H]1NC(=O)[C@@H](Cc2ccccc2)NC(=O)[C@H](CC(C)C)N(C)C(=O)[C@@H](CC(C)C)NC(=O)[C@H](CC(C)C)N(C)C1=O [Compound 5]
## Task Param pair: a , b . Output: the one whose IC50 Value HepG2 is numerically greater. # respond with the chosen item's label
## Result a
(a: 22.88 µg/mL, b: 5.23 µg/mL)

* * *

tested on: human hepatocellular carcinoma HepG2; assay type: cell-based; details: 48 h
measure name: IC50 Value HepG2 (µg/mL)

Please review the following examples before continuing.
CC(C)C[C@@H]1NC(=O)[C@H](CC(C)C)N(C)C(=O)[C@@H](Cc2ccccc2)NC(=O)[C@@H](CC(C)C)N(C)C(=O)[C@H](CC(C)C)NC1=O [Compound 26, cyclo(D-Phe-N-Me-Leu-Leu-Leu-D-N-Me-Leu)]    7.12
CC(C)C[C@@H]1NC(=O)[C@H](Cc2ccccc2)NC(=O)[C@H](CC(C)C)N(C)C(=O)[C@@H](CC(C)C)NC(=O)[C@H](CC(C)C)NC1=O [Compound 20, cyclo(Phe-Leu-Leu-D-Leu-N-Me-Leu)]    9.68

(a) CC(C)C[C@@H]1NC(=O)[C@H](CC(C)C)NC(=O)[C@@H](Cc2ccccc2)NC(=O)[C@H](CC(C)C)N(C)C(=O)[C@@H](CC(C)C)NC1=O [Compound 22, cyclo(D-Phe-Leu-Leu-D-Leu-N-Me-Leu)]
(b) CC(C)C[C@@H]1NC(=O)[C@H](Cc2ccccc2)NC(=O)[C@@H](CC(C)C)NC(=O)[C@@H](CC(C)C)NC(=O)[C@@H](CC(C)C)N(C)C1=O [Compound 3, cyclo(Phe-Leu-D-N-Me-Leu-D-Leu-D-Leu)]
## Task Param pair: a , b . Output: the one whose IC50 Value HepG2 is numerically greater. # respond with the chosen item's label
## Result b
(b: 18.82 µg/mL, a: 6.41 µg/mL)

* * *

tested on: drug-resistant lung cancer cell line A549/DPP; type: cell-based, human; conditions: 48 h
measure name: IC50 Value A549-DPP (µg/mL)

CC(C)C[C@@H]1NC(=O)[C@H](CC(C)C)N(C)C(=O)[C@@H](Cc2ccccc2)NC(=O)[C@@H](CC(C)C)N(C)C(=O)[C@H](CC(C)C)NC1=O [Compound 26, cyclo(D-Phe-N-Me-Leu-Leu-Leu-D-N-Me-Leu)]    11.33

(a) CC(C)C[C@@H]1NC(=O)[C@H](Cc2ccccc2)NC(=O)[C@@H](CC(C)C)N(C)C(=O)[C@H](CC(C)C)NC(=O)[C@H](CC(C)C)NC1=O [Compound 24, cyclo(Phe-Leu-Leu-Leu-D-N-Me-Leu)]
(b) CC(C)C[C@@H]1NC(=O)[C@@H](Cc2ccccc2)NC(=O)[C@@H](CC(C)C)N(C)C(=O)[C@@H](CC(C)C)NC(=O)[C@@H](CC(C)C)NC1=O [Compound 25, cyclo(D-Phe-Leu-D-Leu-D-Leu-D-N-Me-Leu)]
## Task Among a and b , whose measured IC50 Value A549-DPP is the smaller figure? # respond with the chosen item's label
## Result a
